Where do the numbers come from? From patent US6440434B1.

testTarget: lecithin retinol acyl transferase (LRAT) (Bos taurus)
Sequence (Q9BGL2 1-230): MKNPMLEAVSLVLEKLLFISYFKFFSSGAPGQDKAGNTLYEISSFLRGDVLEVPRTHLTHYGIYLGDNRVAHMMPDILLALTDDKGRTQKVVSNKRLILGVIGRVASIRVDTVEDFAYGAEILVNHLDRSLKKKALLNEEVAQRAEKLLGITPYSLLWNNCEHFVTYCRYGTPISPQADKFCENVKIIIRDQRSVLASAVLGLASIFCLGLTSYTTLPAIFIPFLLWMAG
assay: in vitro Microsomal Assay of retinol esterification, LRAT catalyzed (retinyl laurate)
Format: biochemical, bovine
experimentalContext: 10 μM test compound; solvent blank = 100% ester formation
measuredQuantity: % INHIBITION, LRAT (%)

Observe how each entry below is paired with its result.
C/C=C/C(=O)C1C(C)C=CCC1(C)C (centres unmarked)	64
CCCCC/C=C\C/C=C\CCCCCCCC(=O)N(CCO)CCO [Linoleamide-DEA (LODEA), Linoleamide-DEA]	11

(a) CCCCCCCCCCCCC/C=C/[C@@H](O)[C@H](CO)NC(C)=O
(b) C/C=C/C(=O)C1=C(C)CCCC1(C)C
(c) C/C=C/C(=O)C1=C(C)C=CCC1(C)C
**Q:** hey, can you rank those molecules up there by % INHIBITION, LRAT? biggest number first please Please, when replying, give the labels in the order that was requested.
**A:** b, c, a
(b: 52%, c: 29%, a: 10%)
